We begin with Ki values for 5-hydroxytryptamine receptor 6 (Homo sapiens, UniProt P50406), as collected from the published literature.

| Compound | Ki |
| --- | --- |
| O=S(=O)(c1cccc(C(F)(F)F)c1)c1n[nH]c2ccc(OC3CCNCC3)cc12 | 0.01 to 10 nM |
| CN(C)CCOc1cc(F)cc2c(S(=O)(=O)c3cccc4ccccc34)nn(Cc3cccc(Cl)c3)c12 | 11 to 25 nM |
| O=S(=O)(c1cccc2ccccc12)c1n[nH]c2ccc(OCCN3CCCCC3)cc12 | 0.01 to 10 nM |

I am curious: what Ki value has been reported for "CC(C)NCCOc1ccc2c(c1)c(S(=O)(=O)c1cccc3ccccc13)nn2Cc1cccc(Cl)c1" ?
36 to 45 nM

Ok, now "O=S(=O)(c1ccccc1)c1n[nH]c2ccc(OCCN3CCOCC3)cc12"
> 45 nM

Ok, now "NCCOc1ccc2[nH]nc(S(=O)(=O)c3cccc4ccccc34)c2c1"
0.01 to 10 nM

Ok, now "COc1ccc(NS(=O)(=O)c2ccc3c(Cl)cccc3c2)cc1N1CCN(C)CC1"
< 10 nM

Ok, now CC(=O)Nc1nc(C)c(S(=O)(=O)Nc2ccc3c(c2)OC(CN[C@H](C)c2ccccc2)CC3)s1 (some centres unmarked)
7 nM

====

We begin with Ki values for 5-hydroxytryptamine receptor 6 (Homo sapiens, UniProt P50406), as collected from the published literature.

Example compounds with recorded Ki:
| Smiles Representation | Ki |
| --- | --- |
| CCN(CC)CCCOc1cccc2c(S(=O)(=O)c3cccc4ccccc34)n[nH]c12 | 26 to 35 nM |
| O=S(=O)(c1cccc2ccccc12)c1n[nH]c2c(OCCN3CCCC3)cc(F)cc12 | 0.01 to 10 nM |
| CCCCNCCOc1cccc2c(S(=O)(=O)c3ccccc3)n[nH]c12 | 0.01 to 10 nM |
| CSc1nccc(-c2ccc(S(=O)(=O)Nc3cccc(C4CNC4)c3)s2)n1 | 10 to 50 nM |

I am curious: what Ki value has been reported for "CCCN1CC[C@@H](c2ccc(NS(=O)(=O)c3cccc(-c4csc(C)n4)c3)cc2)C1" ?
1 to 10 nM

Ok, now "O=S(=O)(Nc1cccc([C@@H]2CCNC2)c1)c1cccc(OC(F)(F)F)c1"
1 to 10 nM

Ok, now "O=S(=O)(Nc1cccc(C2CNC2)c1)c1cccc(C(F)(F)F)c1"
1 to 10 nM

Ok, now "CC(C)c1ccc(S(=O)(=O)c2n[nH]c3ccc(OC4CCNCC4)cc23)cc1"
11 to 25 nM

Ok, now "O=S(=O)(c1ccc(C(F)(F)F)cc1)c1n[nH]c2ccc(OC3CCNCC3)cc12"
11 to 25 nM

====

We begin with Ki values for 5-hydroxytryptamine receptor 6 (Homo sapiens), as collected from the published literature.

Example compounds with recorded Ki:
| Smiles Representation | Ki |
| --- | --- |
| COc1ccc(Br)cc1S(=O)(=O)Nc1cccc(C2CNC2)c1 | < 1 nM |
| CCCCNCCCOc1ccc2[nH]nc(S(=O)(=O)c3cccc4ccccc34)c2c1 | 0.01 to 10 nM |
| Cc1cccc2c1ccn2S(=O)(=O)c1ccc2c(c1)CNCC2 | 1.26 to 6.31 nM |
| Cc1cn(S(=O)(=O)c2ccc3c(c2)CNCC3)c2ccccc12 | 1.26 to 6.31 nM |
| CN(C)CCn1c(=O)n(S(=O)(=O)c2ccc3ccccc3c2)c2ccccc21 | 17 nM |

I am curious: what Ki value has been reported for "CCCN1CC[C@@H](c2ccc(NS(=O)(=O)c3cccc(N4CCCC4)c3)cc2)C1" ?
1 to 10 nM

====

pKi: −log10 of the molar value.
We begin with pKi values for 5-hydroxytryptamine receptor 6 (Homo sapiens), as collected from the published literature.

Example compounds with recorded pKi:
| Smiles Representation | pKi |
| --- | --- |
| N[C@@H]1CCN(Cc2ccc3[nH]nc(S(=O)(=O)c4cccc5ccccc45)c3c2)C1 | 8.00 to 11.00 |
| CN(C)CCCCc1ccc2[nH]nc(S(=O)(=O)c3cccc4ccccc34)c2c1 | 8.00 to 11.00 |
| COc1ccc(S(=O)(=O)c2n[nH]c3ccc(NC4CCNCC4)cc23)cc1 | 8.00 to 11.00 |

I am curious: what pKi value has been reported for "O=S(=O)(Nc1cccc(C2CNC2)c1)c1cccc(OC(F)(F)F)c1" ?
8.00 to 9.00

====

We begin with Ki values for 5-hydroxytryptamine receptor 6 (Homo sapiens), as collected from the published literature.

Example compounds with recorded Ki:
| Compound | Ki |
| --- | --- |
| O=S(=O)(c1ccccc1)c1n[nH]c2ccc(NC3CCNCC3)cc12 | 0.01 to 10 nM |
| CCNCCOc1ccc2[nH]nc(S(=O)(=O)c3cccc4ccccc34)c2c1 | 0.01 to 10 nM |
| CN(N=Cc1c(-c2ccc(Cl)cc2)[nH]c2ccccc12)C1=NCCN1 | 10 nM |
| COc1ccc(-c2cc(CC3CCOCC3)nc(N3CCN(C)CC3)c2)c(F)c1 | 22.8 nM |
| COc1ccc(S(=O)(=O)n2cc(C(F)F)c3cc(N4CCNCC4)ccc32)cc1 | 67 nM |
| CCNCCOc1cc(OC)cc2c(S(=O)(=O)c3cccc4ccccc34)nn(Cc3cccc(Cl)c3)c12 | > 45 nM |
| CCCCOCCCNCC1CCc2ccc(NS(=O)(=O)c3ccccc3)cc2O1 (centres unmarked) | 2 nM |
| CC(C)NCCOc1ccc2c(c1)c(S(=O)(=O)c1cccc3ccccc13)nn2C | 0.01 to 10 nM |
| Cc1cc(C)n2ncc(S(=O)(=O)c3ccccc3)c2n1 | 237 nM |
| COc1ccc(NS(=O)(=O)c2ccc3c(Cl)cccc3c2)cc1N1CCNCC1 | < 10 nM |

I am curious: what Ki value has been reported for "O=S(=O)(c1ccccc1)c1n[nH]c2ccc(OCCN3CCCC3)cc12" ?
0.01 to 10 nM

Ok, now "NCCCc1ccc2[nH]nc(S(=O)(=O)c3cccc4ccccc34)c2c1"
0.01 to 10 nM

Ok, now "O=S(=O)(c1cccc2ccccc12)c1n[nH]c2cc(OCCN3CCCC3)ccc12"
> 45 nM

====

We begin with Ki values for 5-hydroxytryptamine receptor 6 (Homo sapiens, UniProt P50406), as collected from the published literature.
Number only, in nM; omit the unit.

| Compound | Ki [nM] |
| --- | --- |
| COc1ccc(S(=O)(=O)n2cc(C3CCCNC3)c3ccccc32)cc1 (stereo not shown) | 10 |
| O=C1NCc2ccccc2[C@@H]2CN(S(=O)(=O)c3cccc(Cl)c3Cl)C[C@@H]12 (relative stereo) | 275 |
| COc1cccc(S(=O)(=O)n2c(=O)n(CCN)c3ncccc32)c1 | 14 |

I am curious: what Ki value has been reported for "O=S(=O)(c1ccccc1Br)n1cc(C(F)F)c2c(N3CCNCC3)cccc21" ?
1.1

Ok, now "O=c1n(C2CCNCC2)c2ccccc2n1S(=O)(=O)c1cc(Cl)sc1Cl"
34

Ok, now CN(C)C1CCc2ccc3c(ccn3S(=O)(=O)c3ccc(F)cc3F)c2C1 (stereo not shown)
8

Ok, now CN(C)C1CCc2ccc3c(ccn3S(=O)(=O)c3ccc(C(F)(F)F)cc3Cl)c2C1 (stereo not shown)
55

Ok, now "O=S(=O)(c1ccccc1)n1cc(C(F)F)c2cc(N3CCNCC3)ccc21"
11

Ok, now "O=C(CCN1CCCCC1)Nc1ccc2cnn(S(=O)(=O)c3cccc4ccccc34)c2c1"
15

Ok, now COc1ccc(S(=O)(=O)N(C)c2ccc3c(c2)OC(CN[C@H](C)c2ccccc2)CC3)cc1OC (stereo partly shown)
11

Ok, now C[C@@H](NCC1CCc2ccc(N(C)S(=O)(=O)c3ccc(F)cc3)cc2O1)c1ccccc1 (stereo partly shown)
7

Ok, now "O=S(=O)(c1cccc(Br)c1)n1cc(C(F)F)c2c(N3CCNCC3)cc(Cl)cc21"
1.3

Ok, now "CNCCC(=O)Nc1ccc2cnn(S(=O)(=O)c3cccc4ccccc34)c2c1"
1.2

Ok, now C[C@@H](NCC1CCc2ccc(NS(=O)(=O)c3ccccc3)cc2O1)C1CCCCC1 (stereo partly shown)
7

====

We begin with Ki values for 5-hydroxytryptamine receptor 6 (Homo sapiens, UniProt P50406), as collected from the published literature.

Example compounds with recorded Ki:
| Smiles Representation | Obs Value |
| --- | --- |
| CNCCOc1cccc2c(S(=O)(=O)c3cccc4ccccc34)n[nH]c12 | 0.01 to 10 nM |
| CCCN1CC(c2ccc(NS(=O)(=O)c3cccc(Cl)c3)cc2)C1 | 10 to 50 nM |
| Cn1nc(S(=O)(=O)c2ccccc2)c2cccc(OCCN3CCCCC3)c21 | > 45 nM |

We now examine a further compound.
I am curious: what Ki value has been reported for "COc1ccc(NS(=O)(=O)c2cc(Cl)cc(Cl)c2)cc1N1CCN(C)CC1" ?
< 10 nM
